# measurement-parameters: 323.15 K; 101.33 kPa; Liquid; Laser flash apparatus
endpoint: thermal diffusivity
Param answer (str): number followed by unit.

// solved cases for thermal diffusivity follow
INSERT INTO measurements (compound, endpoint, recorded_value) VALUES
  ('CCCCCCCC(=O)OC [methyl octanoate]', 'thermal diffusivity', '7.69e-08 m2/s'),
  ('CCCCCCCCCCC(=O)OC [methyl undecanoate]', 'thermal diffusivity', '7.98e-08 m2/s'),
  ('CCCCCCCCCC(=O)OC [methyl decanoate]', 'thermal diffusivity', '7.87e-08 m2/s'),
  ('CCCCCCCCC(=O)OC [methyl nonanoate]', 'thermal diffusivity', '7.78e-08 m2/s'),
  ('CCCCCCCCCCCC(=O)OC [methyl dodecanoate]', 'thermal diffusivity', '8.03e-08 m2/s');

Inquiry: Requested field: thermal diffusivity. Item: CCCCCC(=O)OC [methyl hexanoate]
Reply text: 7.56e-08 m2/s

Inquiry: Please give the result for CCCCCCC(=O)OC [methyl heptanoate] too.
Reply text: 7.59e-08 m2/s

----------
# assay-summary: molar heat capacity at constant pressure
# measurement-parameters: 373.15 K; 101.33 kPa; Liquid; DSC
Measured molar heat capacity at constant pressure by item
Quick reminder: number only, in J/K/mol, skip the unit.

// below: answered molecules
INSERT INTO assay_data (molecule, endpoint, unit_string, recorded_value) VALUES
  ('CCCCCCCCC(=O)OC [methyl nonanoate]', 'molar heat capacity at constant pressure', 'J/K/mol', 382),
  ('CCCCCCCC(=O)OC [methyl octanoate]', 'molar heat capacity at constant pressure', 'J/K/mol', 347),
  ('CCCCCCCCCCCC(=O)OC [methyl dodecanoate]', 'molar heat capacity at constant pressure', 'J/K/mol', 486.8),
  ('CCCCCCCCCC(=O)OC [methyl decanoate]', 'molar heat capacity at constant pressure', 'J/K/mol', 417.2),
  ('CCCCCCC(=O)OC [methyl heptanoate]', 'molar heat capacity at constant pressure', 'J/K/mol', 316.9);

Inquiry: I would be grateful if you could share the reported molar heat capacity at constant pressure for CCCCCC(=O)OC [methyl hexanoate] .
Reply text: 269.6

Inquiry: Continue with CCCCCCCCCCC(=O)OC [methyl undecanoate]
Reply text: 446.5

----------
# assay-summary: molar heat capacity at constant pressure
# measurement-parameters: 363.15 K; 101.33 kPa; Liquid; DSC
endpoint: molar heat capacity at constant pressure (J/K/mol)
Provide the reading as a plain figure in J/K/mol.

Please review the entries below; each comes with its answer.
INSERT INTO results (compound, endpoint, recorded_value) VALUES
  ('CCCCCCCC(=O)OC [methyl octanoate]', 'molar heat capacity at constant pressure', 342.8),
  ('CCCCCCCCCCC(=O)OC [methyl undecanoate]', 'molar heat capacity at constant pressure', 441.8),
  ('CCCCCCCCCCCC(=O)OC [methyl dodecanoate]', 'molar heat capacity at constant pressure', 480.7),
  ('CCCCCC(=O)OC [methyl hexanoate]', 'molar heat capacity at constant pressure', 265.5),
  ('CCCCCCCCC(=O)OC [methyl nonanoate]', 'molar heat capacity at constant pressure', 377.6);

Inquiry: // lookup molar heat capacity at constant pressure for CCCCCCC(=O)OC [methyl heptanoate]
Reply text: 312.8

Inquiry: Next compound up: CCCCCCCCCC(=O)OC [methyl decanoate]
Reply text: 412.4

Recorded values, source the NIST ThermoML archive (doi:10.1016/j.jct.2018.09.024).
